system: Bacteroides uniformis; experiment: Antimicrobial activity against Bacteroides uniformis by agar dilution method in presence of 5% laked sheep blood; assay type: functional
endpoint_name: MIC90 (µg/mL)
Use µg/mL as the unit, but write only the number.

Sample answers from the record:
molecule: Cc1ncc([N+](=O)[O-])n1CCO
value_units: µg/mL
MIC90: 1
--
molecule: C[C@@H](O)[C@H]1C(=O)N2C(C(=O)O)=C(S[C@@H]3CN[C@H](CNS(N)(=O)=O)C3)[C@H](C)[C@H]12
value_units: µg/mL
MIC90: 4
--
molecule: CC(=N)N1CC[C@H](SC2=C(C(=O)O)N3C(=O)[C@H]([C@@H](C)O)[C@H]3C2)C1
value_units: µg/mL
MIC90: 4
--
molecule: C[C@@H](O)[C@H]1C(=O)N2C(C(=O)O)=C(S[C@H]3C[C@@H](C(=O)N4CC[C@H](NC(=O)CNC(=N)N)C4)N(C)C3)[C@H](C)[C@H]12
value_units: µg/mL
MIC90: 4

We now examine a further molecule.
Looking up "C[C@@H](O)[C@H]1C(=O)N2C(C(=O)O)=C(S[C@@H]3CN[C@H](C(=O)N(C)C)C3)[C@H](C)[C@H]12" , I found its MIC90 recorded as 4

====

Below is a list of entries, each paired with its recorded MIC50 value.
tested on: Prevotella sp.; assay: Antimicrobial activity against Prevotella sp. by agar dilution method in presence of 5% laked sheep blood; format: functional
Use µg/mL as the unit, but write only the number.

Sample answers from the record:
molecule: C[C@@H](O)[C@H]1C(=O)N2C(C(=O)O)=C(S[C@@H]3CN[C@H](CNS(N)(=O)=O)C3)[C@H](C)[C@H]12
value_units: µg/mL
MIC50: 0.06
//
molecule: C[C@@H](O)[C@H]1C(=O)N2C(C(=O)O)=C(S[C@H]3C[C@@H](C(=O)N4CC[C@H](NC(=O)CNC(=N)N)C4)N(C)C3)[C@H](C)[C@H]12
value_units: µg/mL
MIC50: 0.125
//
molecule: CC(=N)N1CC[C@H](SC2=C(C(=O)O)N3C(=O)[C@H]([C@@H](C)O)[C@H]3C2)C1
value_units: µg/mL
MIC50: 0.125
//
molecule: C[C@@H](O)[C@H]1C(=O)N2C(C(=O)O)=C(S[C@@H]3CN[C@H](C(=O)N(C)C)C3)[C@H](C)[C@H]12
value_units: µg/mL
MIC50: 0.125

We now examine a further compound.
Looking up "Cc1ncc([N+](=O)[O-])n1CCO" , I found its MIC50 recorded as 1

====

system: Bacteroides fragilis; test: Antimicrobial activity against Bacteroides fragilis NCTC 10581 by agar dilution method in presence of 5% laked sheep blood; assay type: functional
endpoint_name: MIC (µg/mL)
Use µg/mL as the unit, but write only the number.

molecule: CC(=N)N1CC[C@H](SC2=C(C(=O)O)N3C(=O)[C@H]([C@@H](C)O)[C@H]3C2)C1
measured_result: 0.25
--
molecule: C[C@@H](O)[C@H]1C(=O)N2C(C(=O)O)=C(S[C@@H]3CN[C@H](CNS(N)(=O)=O)C3)[C@H](C)[C@H]12 [DORIPENEM]
measured_result: 0.5
--
molecule: C[C@@H](O)[C@H]1C(=O)N2C(C(=O)O)=C(S[C@@H]3CN[C@H](C(=O)N(C)C)C3)[C@H](C)[C@H]12 [MEROPENEM]
measured_result: 0.25
--
molecule: C[C@@H](O)[C@H]1C(=O)N2C(C(=O)O)=C(S[C@H]3C[C@@H](C(=O)N4CC[C@H](NC(=O)CNC(=N)N)C4)N(C)C3)[C@H](C)[C@H]12 [TOMOPENEM]
measured_result: 0.125

We now examine a further molecule.
Looking up Cc1ncc([N+](=O)[O-])n1CCO [METRONIDAZOLE] , I found its MIC recorded as 1
